assay: Cytotoxicity against human HepG2 cells assessed as cell growth inhibition incubated for 1 day by neutral red assay; format: toxicity, cell-based
Measured IC50 at 1 day values are reported for all entries that follow.

Study these solved cases before continuing.
COc1ccc2c(c1)[nH]c1c(C)nccc12 [HARMINE] : > 250 µM
Cc1nc(CNC(=O)CNc2ccnc3cc(Cl)ccc23)cc2c1[nH]c1ccccc12 : 18.6 µM
Cc1nccc2c1[nH]c1ccc(OCCNC(=O)CNc3ccnc4cc(Cl)ccc34)cc12 : > 20 µM
Cc1nccc2c1[nH]c1ccc(OCc3cn(-c4ccnc5cc(Cl)ccc45)nn3)cc12 : 5.5 µM
Cc1nc(Cn2cc(COc3ccnc4cc(Cl)ccc34)nn2)cc2c1[nH]c1ccccc12 : > 100 µM
COc1ccc2c3ccnc(C)c3n(CCNC(=O)CNc3ccnc4cc(Cl)ccc34)c2c1 : 8.9 µM

What IC50 at 1 day value was documented for this compound, COc1ccc2c3ccnc(C)c3n(Cc3cn(CCNc4ccnc5cc(Cl)ccc45)nn3)c2c1 ?
14 µM

----------
test: Inhibition of hemin (unknown origin) assessed as inhibition of heme polymerization by measuring reduction in beta-hematin formation at 1 mM measured after 48 hrs by microplate reader assay
Measured inhibition values are reported for all entries that follow.

Study these solved cases before continuing.
Cc1nccc2c1[nH]c1cc(OCc3cn(-c4ccnc5cc(Cl)ccc45)nn3)ccc12 : > 75%
Cc1nccc2c1[nH]c1cc(OCCNC(=O)CNc3ccnc4cc(Cl)ccc34)ccc12 : 50%
Cc1nccc2c1[nH]c1ccc(OCc3cn(-c4ccnc5cc(Cl)ccc45)nn3)cc12 : > 75%
Cc1nccc2c1[nH]c1ccc(OCc3cn(CCNc4ccnc5cc(Cl)ccc45)nn3)cc12 : > 75%

The record that follows has no inhibition shown yet.
What inhibition value was documented for this molecule, Cc1nccc2c1[nH]c1cc(OCc3cn(CCNc4ccnc5cc(Cl)ccc45)nn3)ccc12 ?
> 75%

----------
Measured Ratio IC50 values are reported for all entries that follow.
experiment: Resistance index, ratio of IC50 for antiplasmodial activity against chloroquine-resistant Plasmodium falciparum 7G8 to IC50 for antiplasmodial activity against chloroquine-sensitive Plasmodium falciparum 3D7; format: functional
Give only the figure.

Study these solved cases before continuing.
Cc1nccc2c1[nH]c1ccc(OCc3cn(CCNc4ccnc5cc(Cl)ccc45)nn3)cc12 : 2.1
Cc1nccc2c1[nH]c1cc(OCc3cn(CCNc4ccnc5cc(Cl)ccc45)nn3)ccc12 : 0.7
Cc1nc(CNC(=O)CNc2ccnc3cc(Cl)ccc23)cc2c1[nH]c1ccccc12 : 2.1

The record that follows has no Ratio IC50 shown yet.
What Ratio IC50 value was documented for this compound, Cc1nccc2c1[nH]c1cc(OCc3cn(-c4ccnc5cc(Cl)ccc45)nn3)ccc12 ?
2

----------
test: Selectivity index, ratio of IC50 for cytotoxicity against human HepG2 cells to IC50 for antiplasmodial activity against chloroquine-sensitive Plasmodium falciparum 3D7; assay type: toxicity, cell-based; conditions: read-out: Ratio IC50
Attribute Measured: selectivity ratio

Study these solved cases before continuing.
Cc1nc(Cn2cc(COc3ccnc4cc(Cl)ccc34)nn2)cc2c1[nH]c1ccccc12 : > 9.22
COc1ccc2c3ccnc(C)c3n(CCC(=O)NCCNc3ccnc4cc(Cl)ccc34)c2c1 : 795
Cc1nccc2c1[nH]c1ccc(OCCNC(=O)CNc3ccnc4cc(Cl)ccc34)cc12 : > 66
Cc1nccc2c1[nH]c1cc(OCCNC(=O)CNc3ccnc4cc(Cl)ccc34)ccc12 : 68.1
Clc1ccc2c(OCc3cn(Cc4nccc5c4[nH]c4ccccc45)nn3)ccnc2c1 : > 0.9

The record that follows has no selectivity ratio shown yet.
What selectivity ratio value was documented for this molecule, COc1ccc2c3ccnc(C)c3n(CCC(=O)NCCCCNc3ccnc4cc(Cl)ccc34)c2c1 ?
> 723
